Reference source: paper PMC13486833

# MEASUREMENT TARGET: RAGE-Fc chimera protein (UniProt Q15109 23-342)
# Sequence (Q15109 23-342, change not shown): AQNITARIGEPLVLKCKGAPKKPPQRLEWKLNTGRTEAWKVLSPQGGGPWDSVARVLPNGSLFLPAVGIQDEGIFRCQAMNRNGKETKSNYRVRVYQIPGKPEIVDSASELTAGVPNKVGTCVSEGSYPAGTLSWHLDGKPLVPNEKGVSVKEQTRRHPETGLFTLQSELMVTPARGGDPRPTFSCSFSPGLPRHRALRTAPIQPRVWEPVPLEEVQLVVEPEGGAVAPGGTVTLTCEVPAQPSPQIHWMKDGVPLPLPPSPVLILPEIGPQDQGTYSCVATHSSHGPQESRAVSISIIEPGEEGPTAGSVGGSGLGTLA
# MEASUREMENT NOTES: BLI
As shown below, each of these binders has a reported koff value.
Give a bare numeral; the unit s⁻¹ is implied.

Consider the following illustrative entries.
DS-HMGB1 1–164 (domain or fragment, disulfide bond between C22 and C44) GKGDPKKPRGKMSSYAFFVQTCREEHKKKHPDASVNFSEFSKKCSERWKTMSAKEKGKFEDMAKADKARYEREMKTYIPPKGETKKKFKDPNAPKRPPSAFFLFCSEYRPKIKGEHPGLSIGDVAKKLGEMWNNTAADDKQPYEKKAAKLKEKYEKDIAAYRAK
0.152
3S-HMGB1 1–214 (natural protein) GKGDPKKPRGKMSSYAFFVQTSREEHKKKHPDASVNFSEFSKKSSERWKTMSAKEKGKFEDMAKADKARYEREMKTYIPPKGETKKKFKDPNAPKRPPSAFFLFSSEYRPKIKGEHPGLSIGDVAKKLGEMWNNTAADDKQPYEKKAAKLKEKYEKDIAAYRAKGKPDAAKKGVVKAEKSKKKKEEEEDEEDEEDEEEEEDEEDEDEEEDDDDE
0.015
FR-HMGB1 1–214 (natural protein) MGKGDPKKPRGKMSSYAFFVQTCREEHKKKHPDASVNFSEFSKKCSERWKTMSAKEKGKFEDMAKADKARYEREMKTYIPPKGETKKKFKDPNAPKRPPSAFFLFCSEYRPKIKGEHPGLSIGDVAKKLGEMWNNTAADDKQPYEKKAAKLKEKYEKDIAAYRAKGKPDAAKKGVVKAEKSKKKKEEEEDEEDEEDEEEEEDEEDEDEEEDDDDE
0.041
DS-HMGB1 1–214 (natural protein, disulfide bond between C22 and C44) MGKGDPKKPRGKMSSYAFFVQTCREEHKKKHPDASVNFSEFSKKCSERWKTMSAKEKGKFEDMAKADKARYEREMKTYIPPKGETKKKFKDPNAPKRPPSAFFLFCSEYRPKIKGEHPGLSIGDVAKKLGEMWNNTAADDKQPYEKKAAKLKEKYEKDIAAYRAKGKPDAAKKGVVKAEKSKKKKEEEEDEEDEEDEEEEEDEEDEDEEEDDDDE
0.043

Item DS Box A 1-88 (protein, intramolecular disulfide Cys22-Cys44 in paper numbering (UniProt Cys23-Cys45); paper numbering omits the initiator Met (offset +1: paper Pro8-Ile78 = UniProt 9-79); any initiator Met or tag remnant left out) GKGDPKKPRGKMSSYAFFVQTCREEHKKKHPDASVNFSEFSKKCSERWKTMSAKEKGKFEDMAKADKARYEREMKTYIPPKGETKKKF : provide koff 0.439

Item DS-HMGB1 1–184 (domain or fragment, disulfide bond between C22 and C44) GKGDPKKPRGKMSSYAFFVQTCREEHKKKHPDASVNFSEFSKKCSERWKTMSAKEKGKFEDMAKADKARYEREMKTYIPPKGETKKKFKDPNAPKRPPSAFFLFCSEYRPKIKGEHPGLSIGDVAKKLGEMWNNTAADDKQPYEKKAAKLKEKYEKDIAAYRAKGKPDAAKKGVVKAEKSKKKK : provide koff 0.067
